- target_under_test: HIV-1 protease (Human immunodeficiency virus type 1 group M subtype B, UniProt P04585)
- Construct: Purified HIV-1 protease was obtained as described below; made in house; host or cells: E. coli K12 L507/pHP10D (NRRL B-18560)
- assay_text: biochemical
- condition_notes: read-out: Fluorescence Assay IC50 (converted)
- Procedure: N^α -Biotin-[…]Ne-FITC)-OH The purified peptide was labeled as follows with a fluorescent marker at the C-terminal end for use in the assay. N^α -Biotin-Gly-Ser-Gln-Asn-Tyr-Pro-lle-Val-Gly-Lys-OH (1.206 g, 0.936 mmoles) was dissolved in 100 mL of 0.1M sodium borate, pH 9.5 with stirring. […] Fluorescence HIV-1 Protease Inhibitor Assay Procedure. To each well of a round bottom, 96-well plate is added 20 μl of the Enzyme Solution followed by 10 μl of the compound to be evaluated in 20% aqueous DMSO. […]
IC50 listing for selected molecules.
Give the value in nM but do not write nM after it.

CC(C)(C)NC(=O)c1ccccc1C[C@@H](O)[C@H](Cc1ccccc1)NC(=O)[C@H](CC(N)=O)NC(=O)C1Cc2ccccc2CN1 (single isomer, unassigned) [Example 36] : 1060
CC(C)(C)NC(=O)c1ccccc1C[C@@H](O)[C@H](Cc1ccccc1)NC(=O)[C@H](CC(=O)Nc1ccncc1)NC(=O)c1ccc2ccccc2n1 [Example 48] : 1.16

Kindly review the next molecule as well.
IC50 lookup needed for Cc1cc(C(=O)N[C@@H](CC(N)=O)C(=O)N[C@@H](Cc2ccccc2)[C@H](O)Cc2ccccc2C(=O)NC(C)(C)C)nc2ccccc12 [Example 26] , thanks. 1.12
